# Test system: BEN
# methodSummary: relative viability (nuclei count vs DMSO), 5 days (fraction); higher = more cells survive
# testConditions: first compound 8 µM
Please provide measured relative viability for the entries that follow.

// query Read the entry O=c1cc(-c2cccc3c2Sc2ccccc2S3)oc(N2CCOCC2)c1 + CS(=O)(=O)CCNCc1ccc(-c2ccc3ncnc(Nc4ccc(OCc5cccc(F)c5)c(Cl)c4)c3c2)o1 [Lapatinib] (partner 2 µM) and write its reported relative viability.
// result 1.05

// query Return reported relative viability. Input compound: O=c1cc(-c2cccc3c2Sc2ccccc2S3)oc(N2CCOCC2)c1 + Nc1nc2[nH]cc(CCc3ccc(C(=O)N[C@@H](CCC(=O)O)C(=O)O)cc3)c2c(=O)[nH]1 [Pemetrexed] (partner 0.2 µM)
// result 1.07

// query For the compound O=c1cc(-c2cccc3c2Sc2ccccc2S3)oc(N2CCOCC2)c1 + COc1cc2c(Oc3ccc(NC(=O)C4(C(=O)Nc5ccc(F)cc5)CC4)cc3F)ccnc2cc1OCCCN1CCOCC1 [Foretinib] (partner 0.25 µM) , give its reported relative viability.
// result 0.97

---

# Tested on: LXF-289
# methodSummary: relative viability (nuclei count vs DMSO), 5 days (fraction); higher = more cells survive
# testConditions: first compound 0.1 µM
assayEndpoint: relative viability

// query Name the recorded relative viability of the item O=c1cc(N2CCOCC2)oc2c(-c3cccc4c3sc3ccccc34)cccc12 + Cc1nc(NC(=O)N2CCC[C@H]2C(N)=O)sc1-c1ccnc(C(C)(C)C(F)(F)F)c1 [Alpelisib] (partner 2 µM) in your answer.
// result 1.05

// query Determine from records and report relative viability for O=c1cc(N2CCOCC2)oc2c(-c3cccc4c3sc3ccccc34)cccc12 + NC(=O)Nc1cc(-c2cccc(F)c2)sc1C(=O)N[C@H]1CCCNC1 [AZD7762] (partner 0.2 µM)
// result 0.75

// query Return relative viability (reported value) for this molecule: CCN(CC)CCCCNc1ncc2cc(-c3cc(OC)cc(OC)c3)c(NC(=O)NC(C)(C)C)nc2n1 + Cc1nc(Nc2ncc(C(=O)Nc3c(C)cccc3Cl)s2)cc(N2CCN(CCO)CC2)n1 [Dasatinib] (partner 0.075 µM)
// result 0.266

// query Identify relative viability associated with the molecule CCN(CC)CCCCNc1ncc2cc(-c3cc(OC)cc(OC)c3)c(NC(=O)NC(C)(C)C)nc2n1 + CC(=O)Nc1cccc(-n2c(=O)n(C3CC3)c(=O)c3c(Nc4ccc(I)cc4F)n(C)c(=O)c(C)c32)c1 [Trametinib] (partner 0.02 µM)
// result 0.637

---

# Tested on: NCI-H838
# methodSummary: relative viability (nuclei count vs DMSO), 5 days (fraction); higher = more cells survive
# testConditions: first compound 0.253 µM
Assignment: determine reported relative viability for the given compounds.
Enter the number alone.

// query Give the value of relative viability reported for the following: COc1nc(C)cnc1NS(=O)(=O)c1cccnc1-c1ccc(-c2nnco2)cc1 [Zibotentan] + CS(=O)(=O)CCNCc1ccc(-c2ccc3ncnc(Nc4ccc(OCc5cccc(F)c5)c(Cl)c4)c3c2)o1 [Lapatinib] (partner 2 µM)
// result 0.838

// query Let me know recorded relative viability for O=c1cc(-c2cccc3c2Sc2ccccc2S3)oc(N2CCOCC2)c1 + CC(=O)c1c(C)c2cnc(Nc3ccc(N4CCNCC4)cn3)nc2n(C2CCCC2)c1=O [Palbociclib] (partner 0.5 µM) , thanks.
// result 0.265

// query Return value of relative viability for input O=c1cc(-c2cccc3c2Sc2ccccc2S3)oc(N2CCOCC2)c1 + CC(=O)Nc1cccc(-n2c(=O)n(C3CC3)c(=O)c3c(Nc4ccc(I)cc4F)n(C)c(=O)c(C)c32)c1 [Trametinib] (partner 0.02 µM) , no commentary.
// result 0.673

// query State its relative viability: COc1nc(C)cnc1NS(=O)(=O)c1cccnc1-c1ccc(-c2nnco2)cc1 [Zibotentan] + Nc1nc2[nH]cc(CCc3ccc(C(=O)N[C@@H](CCC(=O)O)C(=O)O)cc3)c2c(=O)[nH]1 [Pemetrexed] (partner 0.2 µM)
// result 0.234
